target: T1, human TMEM106B (human, UniProt Q9NUM4 2-274); test: FACS A549, 10 ug/ml
T1 construct: Full-length, on transiently transfected HEK293 cells, or natively expressed on HeLa, U251 and A549 cells; also called huTMEM106B; huTMEM
Answer each item with its documented MFI.
// no unit string in output, number only

Enquiry: Returns the measured MFI for the input binder. Input: anti-TMEM106B antibody TM-8 (antibody, V domains shown, mouse IgG from hybridoma) VH: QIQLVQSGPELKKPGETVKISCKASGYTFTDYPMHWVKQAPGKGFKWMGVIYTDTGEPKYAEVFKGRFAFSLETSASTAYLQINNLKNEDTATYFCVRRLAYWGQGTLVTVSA VL: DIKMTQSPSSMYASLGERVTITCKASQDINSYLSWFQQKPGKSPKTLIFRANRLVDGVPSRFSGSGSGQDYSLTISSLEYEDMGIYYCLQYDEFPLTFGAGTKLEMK
Return: 492

Enquiry: Consider next the binder anti-TMEM106B antibody TM-23 (antibody, V domains shown) VH: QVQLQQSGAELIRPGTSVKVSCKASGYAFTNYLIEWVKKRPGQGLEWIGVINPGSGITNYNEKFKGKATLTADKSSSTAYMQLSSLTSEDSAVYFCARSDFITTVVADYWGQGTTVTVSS VL: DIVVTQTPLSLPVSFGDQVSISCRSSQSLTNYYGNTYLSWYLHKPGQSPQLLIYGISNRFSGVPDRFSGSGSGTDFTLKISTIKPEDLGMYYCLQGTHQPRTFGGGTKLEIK in the same way.
Return: 757

Enquiry: Consider next the binder anti-TMEM106B antibody TM-12 (antibody, V domains shown) VH: EVQLQQSGAELMRPGASVKLSCTASGFNIQDYYMYWVKQRPEQGLEWIGRIDPEDGDAEYAPKFQGKATMTADTSSNTAYLQLSSLTSEDTAVYYCSTRVIYDGYYRTMDCWGQGTSVTVSS VL: DVLMTQIPLSLPVSLGDQASISCRSSQTIVHSNGNTYLEWYLKKPGQSPKLLIDKISNRFSGVPDRFSGSGSGTDFTLKISRVEAEDLGVYYCFQGSHVPYTFGGGTKLEIK in the same way.
Return: 4950

Enquiry: Consider next the binder anti-TMEM106B antibody TM-13 (antibody, V domains shown) VH: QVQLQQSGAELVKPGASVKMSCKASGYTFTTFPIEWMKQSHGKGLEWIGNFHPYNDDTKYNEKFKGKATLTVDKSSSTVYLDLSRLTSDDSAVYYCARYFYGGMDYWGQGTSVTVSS VL: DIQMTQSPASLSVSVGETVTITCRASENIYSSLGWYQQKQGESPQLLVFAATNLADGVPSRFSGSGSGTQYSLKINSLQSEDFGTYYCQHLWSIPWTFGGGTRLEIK in the same way.
Return: 3890

Enquiry: Consider next the binder anti-TMEM106B antibody TM-39 (antibody, V domains shown) VH: HVQRQQSGTELAKPGASVKLSCKTSGYTFTDYWMHWIKQRPGQGLEWIGFINPSSGYTKYNQNFKDKATLTADKSSSTAYMQLSSLTYEDSAVFYCAREAGSISDWYFDVWGTGTTVTVSS VL: DIVMTQAAPSIPVTPGESVSISCRSSKTLLNSNGNTYLYWFLQRPGQPPQLLIYRMSNLASGVPDRFSGSGSGTAFTLRISRVEAEDVGVYYCMQHLDYPYTFGGGTQLEIK in the same way.
Return: 5330
